# assayed system: T1, Full length human HtrA1 (HuHtrA1) (Q23-P480), N-terminal His6 tag (human, UniProt Q92743 23-480)
# T1 construct: Expressed in Trichoplusia ni insect cells
# T1 sequence (Q92743 other isoform, or with tags, fused parts or gaps): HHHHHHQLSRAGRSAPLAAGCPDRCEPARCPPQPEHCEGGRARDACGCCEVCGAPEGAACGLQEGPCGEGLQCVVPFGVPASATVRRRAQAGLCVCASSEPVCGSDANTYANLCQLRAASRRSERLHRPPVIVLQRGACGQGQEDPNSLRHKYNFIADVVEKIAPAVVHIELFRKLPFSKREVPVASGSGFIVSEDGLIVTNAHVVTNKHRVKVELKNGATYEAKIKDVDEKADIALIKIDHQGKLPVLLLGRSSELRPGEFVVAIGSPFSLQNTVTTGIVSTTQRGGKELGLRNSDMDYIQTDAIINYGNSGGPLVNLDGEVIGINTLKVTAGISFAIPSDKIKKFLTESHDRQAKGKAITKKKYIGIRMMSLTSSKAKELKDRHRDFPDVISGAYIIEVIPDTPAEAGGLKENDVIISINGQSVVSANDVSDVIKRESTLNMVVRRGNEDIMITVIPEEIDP
# assay name: SPR (BIAcore T100), single-cycle kinetics, biotinylated human HtrA1 captured on streptavidin, Fab in solution
Please provide measured Kd for the entries that follow.
Hi! Could you send only the number? It should be in nM, unit omitted.

Challenge: Quick one: Kd for YW505.94a.28 Fab (Fab, V domains shown) VH: EVQLVESGGGLVQPGGSLRLSCAASGFSISGYYIHWVRQAPGKGLEWVGWIDPYGGDTNYADSVKGRFTISADTSKNTAYLQMNSLRAEDTAVYYCARGTFLTSWGHYFDYWGQGT VL: DIQMTQSPSSLSASVGDRVTITCRASQSINTYLAWYQQKPGKAPKLLIYSASFLYSGVPSRFSGSGSGTDFTLTISSLQPEDFATYYCQQSDDTPPTFGQGTKVEIKR ?
Response given: 3.4

Challenge: Another binder to look at: YW505.94a Fab (Fab, V domains shown, Tested as Fab) VH: EVQLVESGGGLVQPGGSLRLSCAASGFSISGYYIHWVRQAPGKGLEWVGWIDPYGGDTNYADSVKGRFTISADTSKNTAYLQMNSLRAEDTAVYYCARGTFLTSWGHYFDYWGQGT VL: DIQMTQSPSSLSASVGDRVTITCRASQDVSTAVAWYQQKPGKAPKLLIYSASFLYSGVPSRFSGSGSGTDFTLTISSLQPEDFATYYCQQSYTTPPTFGQGTKVEIKR
Response given: 55

Challenge: Another binder to look at: Fab94 (anti-HtrA1 antibody YW505.94, Fab format) (Fab, V domains shown) VH: EVQLVESGGGLVQPGGSLRLSCAASGFNISGYYIHWVRQAPGKGLEWVGWIDPYGGDTNYADSVKGRFTISADTSKNTAYLQMNSLRAEDTAVYYCARGTFLTSWGHYFDYWGQGT VL: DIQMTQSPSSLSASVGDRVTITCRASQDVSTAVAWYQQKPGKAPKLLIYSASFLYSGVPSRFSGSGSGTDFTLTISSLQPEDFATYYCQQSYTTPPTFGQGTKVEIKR
Response given: 31.1

Challenge: Another binder to look at: YW505.94a.54 Fab (Fab, V domains shown) VH: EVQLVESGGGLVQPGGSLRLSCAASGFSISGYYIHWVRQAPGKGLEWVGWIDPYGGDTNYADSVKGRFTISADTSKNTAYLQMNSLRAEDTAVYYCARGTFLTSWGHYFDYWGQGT VL: DIQMTQSPSSLSASVGDRVTITCRASQVVGNYLAWYQQKPGKAPKLLIYSASFLYSGVPSRFSGSGSGTDFTLTISSLQPEDFATYYCQQSDDHPPTFGQGTKVEIKR
Response given: 2.6
